Source of measurements: the supplement of paper PMC9942255

Test system: Bacillus subtilis DB104 (SP-AmyQ fusion secretion)
Assay: AmyQ secretion efficiency, weighted average sort bin (1 = best secretion, 10 = worst) (bin number (weighted average, 1-10)); higher = lower secretion efficiency
Listing of entries alongside the reported AmyQ secretion efficiency.

Observe how each entry below is paired with its result.
• MFNRLFRVCFLAALIMAFSSSSLFISLVTLPNSVYAQKP = 4.04
• MKSKGSIMACLILFSFTITTFINTETISAFSR = 3.97

Item: `MGLGKKLSVAVAASFMSLSISLPGQQAAEG` | AmyQ secretion efficiency: 3.99

----------
System: Bacillus subtilis DB104 (SP-AmyQ fusion secretion)
Test: AmyQ secretion efficiency, weighted average sort bin (1 = best secretion, 10 = worst) (bin number (weighted average, 1-10)); higher = lower secretion efficiency
Consider the reported AmyQ secretion efficiency of an entry and match it to a band in low (below 3), mid (3 to below 6), high (6 or more)

Solved cases (3 shown):
* MKLWMRKTLVVLFTIVTFGLVSPPAARMADKP | low
* MTKKRWKTPYVCVLLISGWLAPAASASAQTT | low
* MKSKGSIMACLILFSFTITTFINEISAFSN | high

Lab log: `MKRILLSSALSFGMLISAVPALAAGT` — assign AmyQ secretion efficiency category
low

Lab log: `MHLIRAAGAVCLAVVLIAGCAFNEDQHQAEGENT` — assign AmyQ secretion efficiency category
mid

Lab log: `MKRLFMKSMASLVLFAVVFVFAVKGAPAKAETH` — assign AmyQ secretion efficiency category
low
